Parameter EC50 group, cGMP in GTM-3 cells: see the listing below.
studyTarget: T1, natriuretic peptide receptor-B (human)
T1 chain: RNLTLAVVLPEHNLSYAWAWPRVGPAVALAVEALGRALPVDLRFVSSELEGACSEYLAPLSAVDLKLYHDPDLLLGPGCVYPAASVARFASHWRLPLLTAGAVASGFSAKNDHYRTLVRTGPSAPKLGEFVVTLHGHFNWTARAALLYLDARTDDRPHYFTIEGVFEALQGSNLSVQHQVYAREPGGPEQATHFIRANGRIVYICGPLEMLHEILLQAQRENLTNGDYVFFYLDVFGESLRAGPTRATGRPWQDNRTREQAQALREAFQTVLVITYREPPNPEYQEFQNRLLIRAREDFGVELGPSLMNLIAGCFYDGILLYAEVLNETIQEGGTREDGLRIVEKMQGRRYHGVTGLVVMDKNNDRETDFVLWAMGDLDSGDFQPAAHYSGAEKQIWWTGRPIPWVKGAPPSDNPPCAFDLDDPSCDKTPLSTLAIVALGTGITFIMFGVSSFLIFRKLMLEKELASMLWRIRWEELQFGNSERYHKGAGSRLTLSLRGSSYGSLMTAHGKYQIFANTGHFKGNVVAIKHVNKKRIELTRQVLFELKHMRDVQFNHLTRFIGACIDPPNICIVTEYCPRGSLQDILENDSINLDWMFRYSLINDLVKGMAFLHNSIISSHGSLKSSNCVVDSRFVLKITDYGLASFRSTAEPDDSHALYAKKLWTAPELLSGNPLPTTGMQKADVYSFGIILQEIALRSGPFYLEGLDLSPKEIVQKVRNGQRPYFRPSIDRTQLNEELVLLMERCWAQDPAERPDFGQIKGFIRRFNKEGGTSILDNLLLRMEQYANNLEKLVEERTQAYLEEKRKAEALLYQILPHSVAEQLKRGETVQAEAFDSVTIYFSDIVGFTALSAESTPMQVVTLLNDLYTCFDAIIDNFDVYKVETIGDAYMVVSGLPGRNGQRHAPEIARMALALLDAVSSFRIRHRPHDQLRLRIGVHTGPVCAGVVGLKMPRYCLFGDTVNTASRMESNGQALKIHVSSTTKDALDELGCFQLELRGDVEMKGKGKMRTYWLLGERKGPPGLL
assayRemarks: cell-based or functional assay
Numbered stars: 1 amine (or outer) side, 2 acyl side, 3 side chain; on linkers, the order of the positions; unused ones are H or OH. Square brackets hold non-standard residues; d marks the D form. Ends that are not written are not given here. * marks the point of attachment. Pro(trans-4-NH2) = O=C([C@@H]1C[C@@H](N[*:3])CN1[*:1])[*:2]; Sni = (S)-nipecotic acid, O=C([C@H]1CCCN([*:1])C1)[*:2]; Phe(3,4-Cl2) = N[C@@H](Cc1ccc(Cl)c(Cl)c1)C(=O)O; Hyp = O=C(O)[C@@H]1C[C@@H](O)CN1; NMeL = CN[C@@H](CC(C)C)C(=O)O; Octanoyl = CCCCCCCC(=O)*; 1860 = not defined here; 1906 = not defined here; Che = not defined here; opa = not defined here; Aib = CC(C)(N)C(=O)O; Occ = octanoic acid; βAla = NCCC(=O)O

Solved cases (7 shown):
binder	EC50 group, cGMP in GTM-3 cells
Octanoyl-XF[dR]LP[NMeL]DRI-NH2 (not fully specified (some residues); printed as Occ-pip-Phe-arg-Leu-Pro-Nml-Asp-Arg-Ile-NH2) [JAL-1078]	≤ 1000 nM
[Occ]AF[Aib]LPLDRI-NH2 (not fully specified (residue 2); printed as Occ-ala-Phe-Aib-Leu-Pro-Leu-Asp-Arg-Ile-NH2) [JAL-0943]	≤ 15000 nM
[Occ][Sni]F[dL]L[Pro(trans-4-NH2)](βAla)[NMeL]DRI-NH2 [JAL-1323]	≤ 1000 nM
Octanoyl-[dA]F[dR]LP[NMeL]DRI-NH2 [JAL-1075]	≤ 5000 nM
Octanoyl-AAFGLKLDR[1906] (not fully specified (some residues); printed as Occ-ala-ala-Phe-Gly-Leu-Lys-Leu-Asp-Arg-1906; reading uncertain) [JAL-0801]	≤ 5000 nM
[Occ][Sni]FLL[Hyp][NMeL]DP[1860] (not fully specified (residue 4); printed as Occ-Sni-Phe-leu-Leu-Hyp-Nml-Asp-Pro-1860; reading uncertain) [JAL-1510]	≤ 1000 nM
[Occ][Sni]F[opa]L[Hyp][NMeL]DRI-NH2 (reading uncertain; also: printed as Occ-Sni-Phe-opa-Leu-Hyp-Nml-Asp-Arg-Ile-NH2) [JAL-1887]	≤ 5000 nM

The binder listed as Octanoyl-[Sni][Phe(3,4-Cl2)][dL]L[Hyp][NMeL]DP[Che] (not fully specified; printed as Occ-Sni-Eaa-leu-Leu-Hyp-Nml-Asp-Pro-Che; reading uncertain) [JAL-1599] shows EC50 group, cGMP in GTM-3 cells equal to ≤ 1000 nM

Reference source: patent US9187525B2
